- assayMethodText: soluble on expression in E. coli; label from the status in PepcDB or PDB records
measuredMetric: soluble on expression in E. coli

- entrySequence: "MLLEISIYCRGGQGGVTAARILAATAMLQGYYSQSMPQFGPERRGAEVRAFLRISDERIRRKCPITYPDVVILFDLKLSFNGNPETVVVNCNGSSFTGHGNVFALDATEITRRYGLVNAGWPILGPAMAGTAAKALDLDPRCLLEAIRLELGDKADRSVKAAEEAYRVVECV"
  assayResult: "not soluble"
- entrySequence: "MENESKTINIELPEEIAQGNYCNLCIVMHSPSEFVLDFIRMVPNRDTARVQNRIILTPDNAKRLLTTLSDNIHRYEVEHGEIHTEQRVSDATFTFPTKIKGEA"
  assayResult: "soluble"
- entrySequence: "MAHHHHHHMMPRSENQKEEEEWELHPLFLSKIPNKKDIDKNPALSALITLINEEEEKEVFSYEPRRKNLKKKITEKGQIIYKKDRRNLYEPYQQNKNDKINYFEKKNFGGNADISKEEEVLDVEMDEEGTTVTTAEQGGDHSSQNVSNNQEATDQTSIGEVLVCLSMMNLKQ"
  assayResult: "soluble"
- entrySequence: "MRYSSRMPGSVMPGAGAHPRIPQVQTSVANSQILGYLGRALSLEFTAGQHYLAQASLAKFRQEISYAEGFITLANEEFQHANLITDRMVAQGALPAGSVLRPAGSANNIAEALKSCEEREIALIQLYTEATQYCANMGAQEDHALFSRLLEEEQSQLMRVQAWLQDYFQMMANTYQPDRSFV"
  assayResult: "not soluble"

**Q:** State, in one line, measured soluble on expression in E. coli of `MSNISTPQPRIGFVSLGCPKNLVDSERILTELRTEGYQVVPRYDDAELVIVNTCGFIDSAVQESLEAIGEALNENGKVIVTGCLGAKENQIREVHPKVLEITGPHSYEQVLSHVHQYVPKPTHNPFTSLVPEQGVKLTPRHYAYLKISEGLEHHHHHH`
**A:** soluble

**Q:** State, in one line, measured soluble on expression in E. coli of `MSLAQFVDWDLAAATAGTLGKTGPRVSYVEATAVVGDLRQLTDEAAEHVADFTGLRSQVSHPPVQVVDRRDWAATNVAGLREMIGPLVGRLAGDKQPSVLTEAIGSRITGVQAGTVLAYLSGRVLGQYEVFSGEPGQLLLIAPNIVEVERKLAADPRDFRMWVCLHEVTHRTQFTAVPWLRAYFLGEVQAFVDASSSGGEPLVERLRRGITVLADAVREPAGRTSVLDIVQTPAQKAVLDRLTALMTLLEGHAEFVMDGVGPQVIPSVERIRASFNRRRESGNPLEKALRRLLGVEVKLRQYAEGRSFVHGVVERVGMEGFNRVFASPLTLPRLAELSDPDAWVARVHGPAGPLPAGDEGHHHHHH`
**A:** soluble

**Q:** State, in one line, measured soluble on expression in E. coli of `MAEEYSWDSYLNDRLLATNQVSGAGLASEEDGVVYACVAQGEESDPNFDKWSLFYKEDYDIEVEDENGTKTTKTINEGQTILVVFNEGYAPDGVWLGGTKYQFINIERDLEFEGYNFDVATCAKLKGGLHLVKVPGGNILVVLYDEEKEQDRGNSKIAALTFAKELAESSQLQHHHHHH`
**A:** soluble

Data provenance: the DeepSol protein solubility set
